Listing of entries alongside the reported viability.
- ASSAY METHOD TEXT: reversal of MRP1-mediated doxorubicin resistance, pilot screen, H69AR cells, doxorubicin co-treatment (AID 601)
- RUN CONDITIONS: H69AR cells + 2 uM doxorubicin, CellTiter-Glo, 72 h; measured here: viability with 2 uM doxorubicin; at 10 µM; stronger effect = lower value
ASSAY ENDPOINT: viability (%)

INSERT INTO results (substance_smiles, unit_info, value_measured) VALUES
  ('C=CCn1c(CC#N)nnc1N1CCOCC1', '%', 89.5),
  ('COC(=O)c1c(C#N)c(N)nc2c1CCC2', '%', 93.1),
  ('O=C(CSc1nc2ccccc2s1)N1CCOCC1', '%', 97.1);
